# experiment_description: AUC in female rat at 2000 mg/kg/day, iv
# Assay type: ADME, organism-based
# Parameters: route intravenous
# settings: plasma
measured_quantity: AUC (µg·h/mL)
Give bare numbers, in µg·h/mL.

Reported AUC, molecule CNS(=O)(=O)c1cc(C(=O)N2CCC(CCN3C4CCC3CC(n3c(C)nc5ccccc53)C4)(c3cccc(F)c3)CC2)c(Cl)cc1F (stereo unspecified) : ____
160
